Origin of values: patent US10780074B2

# Test system: behaviors of compound-treated mice
# method_summary: Neuropharmacological Assay (SmartCube)
# Assay type: in vivo
# cond: i.p. 15 min before behavioral test, most efficacious dose(s) of 3 doses
Counter-ions that a name gives are not always drawn.
assay_endpoint: CE: cognitive enhancer (probability that activity matches class)

CNC[C@H]1OCCc2c(-c3cncnc3)cccc21 (single isomer, unassigned) [Compound 30, hydrochloride salt] :: ++ (5% ≤ ++ <25%)
CNC[C@H]1OCCc2c(-c3cnco3)cccc21 (single isomer, unassigned) [Compound 97, hydrochloride salt] :: + (LOQ ≤ + <5%)
CNC[C@H]1OCc2c(-c3ccncc3)cccc21 [Compound 40, hydrochloride salt] :: ++ (5% ≤ ++ <25%)
NC[C@@H]1OCCc2c(-c3ccnnc3)cccc21 (single isomer, unassigned) [Compound 78, hydrochloride salt] :: + (LOQ ≤ + <5%)

====

# System: behaviors of compound-treated mice
# method_summary: Neuropharmacological Assay (SmartCube)
# Type: in vivo
# cond: i.p. 15 min before behavioral test, most efficacious dose(s) of 3 doses
Structures can show the parent of a compound that is named as a salt.
assay_endpoint: DP: anti-depressant (probability that activity matches class)

Some molecules with known DP: anti-depressant (probability that activity matches class) results, for comparison:
CNC[C@H]1OCCc2c(-c3cnco3)cccc21 (single isomer, unassigned) [Compound 97, hydrochloride salt] :: ++ (5% ≤ ++ <25%)
NC[C@@H]1OCCc2c(-c3cnccn3)cccc21 (single isomer, unassigned) [Compound 82, hydrochloride salt] :: + (LOQ ≤ + <5%)
CNCC1OCCc2c(-c3cnccn3)cccc21 (stereo not shown) [Compound 56, hydrochloride salt] :: ++++ (50% ≤ ++++)
CCNC[C@@H]1OCCc2c(-c3ccncc3)cccc21 (single isomer, unassigned) [Compound 66, hydrochloride salt] :: ++ (5% ≤ ++ <25%)
NC[C@H]1OCCc2c(-c3ccon3)cccc21 (single isomer, unassigned) [Compound 89, hydrochloride salt] :: ++++ (50% ≤ ++++)

Qu. I have this molecule here, NC[C@@H]1OCCc2c(-c3cocn3)cccc21 [Compound 100, HCl salt] , and I need its recorded DP: anti-depressant (probability that activity matches class).
Ans. + (LOQ ≤ + <5%)

Qu. I have this molecule here, Cc1cc(-c2cccc3c2CCO[C@H]3CN)ccn1 (single isomer, unassigned) [Compound 122, hydrochloride salt] , and I need its recorded DP: anti-depressant (probability that activity matches class).
Ans. + (LOQ ≤ + <5%)

====

# System: behaviors of compound-treated mice
# method_summary: Neuropharmacological Assay (SmartCube)
# Format: in vivo
# cond: i.p. 15 min before behavioral test, most efficacious dose(s) of 3 doses
Counter-ions that a name gives are not always drawn.
assay_endpoint: DP: anti-depressant (probability that activity matches class)

CNC[C@H]1OCCCc2c(-c3ccccn3)cccc21 (single isomer, unassigned) [Compound 157, hydrochloride salt] :: + (LOQ ≤ + <5%)
CNC[C@H]1OCCc2c(-c3cccnc3)cccc21 (single isomer, unassigned) [Compound 8, bis-hydrochloride] :: ++++ (50% ≤ ++++)
CNC[C@@H]1OCCc2cc(-c3cccnc3)ccc21 [Compound 5, bis-hydrochloride] :: ++++ (50% ≤ ++++)
CNC[C@H]1OCCc2cc(-c3cccnn3)ccc21 (single isomer, unassigned) [Compound 32, hydrochloride] :: + (LOQ ≤ + <5%)
CNC[C@H]1OCCc2c(-c3cocn3)cccc21 [Compound 103, HCl salt] :: ++++ (50% ≤ ++++)

Now consider the entry below.
Qu. I have this compound here, CNC[C@@H]1OCCc2c(-c3ccncc3)cccc21 [Compound 17, dihydrochloride salt] , and I need its recorded DP: anti-depressant (probability that activity matches class).
Ans. ++++ (50% ≤ ++++)

====

Can you tell me minimal effective dose for the items I'm about to list?
# Test system: behaviors of compound-treated mice
# method_summary: Neuropharmacological Assay (SmartCube)
# Format: in vivo
# cond: Mus musculus, ip, 0.25 h, dose having 50% or more total activity in SmartCube, i.p., read-out: MED (minimal effective dose)
Structures can show the parent of a compound that is named as a salt.

Qu. I have this compound here, NC[C@@H]1OCCc2ccc(-c3cccnc3)cc21 (single isomer, unassigned) [Compound 11, hydrochloride] , and I need its recorded minimal effective dose.
Ans. 10 to 30 mg/kg

Qu. I have this compound here, NC[C@H]1OCCc2c(-c3ccncn3)cccc21 (single isomer, unassigned) [Compound 75, hydrochloride salt] , and I need its recorded minimal effective dose.
Ans. 3 to 10 mg/kg

Qu. I have this compound here, CNC[C@@H]1OCCc2cc(-c3cccnn3)ccc21 (single isomer, unassigned) [Compound 31, hydrochloride] , and I need its recorded minimal effective dose.
Ans. > 30 mg/kg

Qu. I have this compound here, NC[C@@H]1OCc2c(-c3cccnc3)cccc21 [Compound 35, hydrochloride] , and I need its recorded minimal effective dose.
Ans. 3 to 10 mg/kg

Qu. I have this compound here, CNC[C@H]1OCCc2c(-c3cc(C)nc(C)c3)cccc21 [Compound 125, dihydrochloride] , and I need its recorded minimal effective dose.
Ans. ≤ 3 mg/kg

Qu. I have this compound here, CNC[C@H]1OCCc2ccc(-c3ccncc3)cc21 [Compound 50, hydrochloride] , and I need its recorded minimal effective dose.
Ans. 3 to 10 mg/kg

Qu. I have this compound here, NC[C@@H]1OCCc2ccc(-c3ccncc3)cc21 [Compound 47, hydrochloride] , and I need its recorded minimal effective dose.
Ans. 3 to 10 mg/kg

Qu. I have this compound here, NCC1OCCc2c(-c3cnoc3)cccc21 (centres unmarked) [Compound 64, hydrochloride salt] , and I need its recorded minimal effective dose.
Ans. 3 to 10 mg/kg

====

# System: behaviors of compound-treated mice
# method_summary: Neuropharmacological Assay (SmartCube)
# Format: in vivo
# cond: i.p. 15 min before behavioral test, most efficacious dose(s) of 3 doses
Structures can show the parent of a compound that is named as a salt.
assay_endpoint: DP: anti-depressant (probability that activity matches class)

NC[C@@H]1OCCc2c(-c3cncs3)cccc21 (single isomer, unassigned) [Compound 70, hydrochloride salt] :: ++++ (50% ≤ ++++)
CNC[C@H]1OCCc2c(-c3cncs3)cccc21 (single isomer, unassigned) [Compound 69, hydrochloride salt] :: ++++ (50% ≤ ++++)
Cc1cc(-c2cccc3c2CCO[C@H]3CN)cc(C)n1 [Compound 126, dihydrochloride] :: + (LOQ ≤ + <5%)
CNC[C@@H]1OCCCc2c(-c3ccncc3)cccc21 (single isomer, unassigned) :: + (LOQ ≤ + <5%)

====

# Tested on: behaviors of compound-treated mice
# method_summary: Neuropharmacological Assay (SmartCube)
# Type: in vivo
# cond: i.p. 15 min before behavioral test, most efficacious dose(s) of 3 doses
Structures can show the parent of a compound that is named as a salt.
assay_endpoint: DP: anti-depressant (probability that activity matches class)

CNC[C@H]1OCCc2c(-c3ncc[nH]3)cccc21 [Compound 111, hydrochloride salt] :: + (LOQ ≤ + <5%)
CNC[C@H]1OCCc2cc(-c3ncccn3)ccc21 [Compound 22, hydrochloride salt] :: ++ (5% ≤ ++ <25%)
NC[C@@H]1OCCc2c(-c3ccon3)cccc21 (single isomer, unassigned) [Compound 88, hydrochloride salt] :: ++ (5% ≤ ++ <25%)
NC[C@@H]1OCCc2cccc(-c3cccnc3)c21 (single isomer, unassigned) [Compound 9, hydrochloride] :: ++ (5% ≤ ++ <25%)
NC[C@H]1OCCc2c(-c3ccccc3)cccc21 (single isomer, unassigned) [Compound 131, hydrochloride salt] :: ++++ (50% ≤ ++++)

Qu. I have this molecule here, NC[C@H]1OCCc2ccc(-c3cccnc3)cc21 (single isomer, unassigned) [Compound 12, hydrochloride] , and I need its recorded DP: anti-depressant (probability that activity matches class).
Ans. ++++ (50% ≤ ++++)

Qu. I have this molecule here, CNC[C@@H]1OCCc2c(-c3ncccn3)cccc21 [Compound 24, hydrochloride] , and I need its recorded DP: anti-depressant (probability that activity matches class).
Ans. + (LOQ ≤ + <5%)

====

# Tested on: behaviors of compound-treated mice
# method_summary: Neuropharmacological Assay (SmartCube)
# Assay type: in vivo
# cond: Mus musculus, ip, 0.25 h, dose having 50% or more total activity in SmartCube, read-out: MED (minimal effective dose)
Counter-ions that a name gives are not always drawn.
Can you tell me minimal effective dose for the items I'm about to list?

Qu. I have this molecule here, CNC[C@H]1OCCc2c1cccc2-n1cccn1 [Compound 187] , and I need its recorded minimal effective dose.
Ans. 3 to 10 mg/kg

Qu. I have this molecule here, NC[C@H]1OCCc2c1cccc2-n1cccn1 [Compound 189, hydrochloride salt] , and I need its recorded minimal effective dose.
Ans. 10 to 30 mg/kg

Qu. I have this molecule here, NC[C@@H]1OCCc2c1cccc2-n1ccnc1 [Compound 184, hydrochloride salt] , and I need its recorded minimal effective dose.
Ans. 10 to 30 mg/kg

Qu. I have this molecule here, CNC[C@H]1OCCc2c1cccc2-n1ccnc1 [Compound 183, hydrochloride salt] , and I need its recorded minimal effective dose.
Ans. 3 to 10 mg/kg

Qu. I have this molecule here, NC[C@@H]1OCCc2c1cccc2-n1cccn1 [Compound 188, hydrochloride salt] , and I need its recorded minimal effective dose.
Ans. 10 to 30 mg/kg
